- TEST_METHOD_NOTES: Tmax in dog at 5 mg/kg, po measured upto 24 hrs by LC-MS/MS analysis
- Assay type: ADME, organism-based, Canis lupus familiaris
- EXPERIMENTAL_SETUP: in vivo
EXPERIMENTAL_READOUT: Tmax (h)
# unit: h | format: bare number

Please look at this compound and report its Tmax: FC(F)c1c(Br)c(Br)cc2c1nc(N1CCNCC1)n2C1CCOCC1 2

* * *

- TEST_METHOD_NOTES: Volume of distribution at steady state in monkey at 1 mg/kg, iv measured upto 24 hrs by LC-MS/MS anlaysis
- Type: ADME, organism-based, Macaca mulatta
- EXPERIMENTAL_SETUP: rhesus monkey, in vivo, read-out: Vdss
EXPERIMENTAL_READOUT: Vd (L/kg)
# unit: L/kg | format: bare number

Please look at this compound and report its Vd: FC(F)c1c(Br)c(Br)cc2c1nc(N1CCNCC1)n2C1CCOCC1 7.05

* * *

Please consider the recorded pIC50 for Homeodomain-interacting protein kinase 3 (Homo sapiens) in what follows.
pIC50 here is simply -log10 of the concentration when that concentration is written in mol/L.

{"columns": ["COMPOUND", "pIC50"],
 "data": [
  ["Cc1c(Br)c(Br)c2c3c1nc(N1CCNCC1)n3CCC2 [SEL-120 FREE BASE]", 6.88]
]}

Switching to the query record.
Provide pIC50, system Homeodomain-interacting protein kinase 3 (Homo sapiens), entry FC(F)c1c(Br)c(Br)cc2c1nc(N1CCNCC1)n2C1CCOCC1 6.30

* * *

- TEST_METHOD_NOTES: Cmax in monkey at 5 mg/kg, po measured upto 24 hrs by LC-MS/MS analysis
- Type: ADME, organism-based, Macaca mulatta
- EXPERIMENTAL_SETUP: rhesus monkey, in vivo
EXPERIMENTAL_READOUT: Cmax (ng/mL)
# unit: ng/mL | format: bare number

Please look at this compound and report its Cmax: FC(F)c1c(Br)c(Br)cc2c1nc(N1CCNCC1)n2C1CCOCC1 1100

* * *

- TEST_METHOD_NOTES: Tmax in dog at 3 mg/kg, po measured upto 24 hrs by LC-MS/MS analysis
- Format: ADME, organism-based, Canis lupus familiaris
- EXPERIMENTAL_SETUP: in vivo
EXPERIMENTAL_READOUT: Tmax (h)
# unit: h | format: bare number

Please look at this compound and report its Tmax: Cc1c(Br)c(Br)c2c3c1nc(N1CCNCC1)n3CCC2 [SEL-120 FREE BASE] 4.18

* * *

- TEST_METHOD_NOTES: Volume of distribution at steady state in mouse at 1 mg/kg, iv measured upto 24 hrs by LC-MS/MS anlaysis
- Assay type: ADME, organism-based
- EXPERIMENTAL_SETUP: in vivo, read-out: Vdss
# maps each entry to its Vd
# unit: L/kg | format: bare number

{"columns": ["COMPOUND", "Vd / L/kg"],
 "data": [
  ["FC(F)c1c(Br)c(Br)cc2c1nc(N1CCNCC1)n2C1CCOCC1", 5.96]
]}

Switching to the query record.
Please look at this compound and report its Vd: Cc1c(Br)c(Br)c2c3c1nc(N1CCNCC1)n3CCC2 [SEL-120 FREE BASE] 19.2

* * *

- TEST_METHOD_NOTES: Tmax in monkey at 5 mg/kg, po measured upto 24 hrs by LC-MS/MS analysis
- Assay type: ADME, organism-based, Macaca mulatta
- EXPERIMENTAL_SETUP: rhesus monkey, in vivo
EXPERIMENTAL_READOUT: Tmax (h)
# unit: h | format: bare number

Please look at this molecule and report its Tmax: FC(F)c1c(Br)c(Br)cc2c1nc(N1CCNCC1)n2C1CCOCC1 4
